Data provenance is ChEMBL document CHEMBL1130383.

- study system: GABA-A receptor; anion channel (Bos taurus) (UniProt P10063+P08220+P20237+P08219+P10064+P22300)
- experimental details: Concentration required to potentiate GABA-evoked currents in voltage-clamped bovine chromaffin cells by 300%
- Type: functional
POT: recorded values
// note: answer is a bare numeric in nM

Example cases with answers are listed next.
| compound | POT, nM |
| --- | --- |
| CC(=O)[C@H]1CC[C@H]2[C@@H]3CC[C@H]4C[C@H](O)[C@@H](N5CCOC(C)(C)C5)C[C@]4(C)[C@H]3CC[C@]12C | 120 |
| C[C@]12C[C@H](N3CCOCC3)[C@@H](O)C[C@@H]1CC[C@@H]1[C@@H]2CC[C@]2(C)[C@@H](C(=O)CCl)CC[C@@H]12 | 150 |
| CC(=O)[C@H]1CC[C@H]2[C@@H]3CC[C@@H]4C[C@H](O)CC[C@]4(C)[C@H]3CC[C@]12C | 115 |

Here is the next item to consider.
Task item: Report POT, nothing else, for this compound: CC(=O)OCC(=O)[C@H]1CC[C@H]2[C@@H]3CC[C@H]4C[C@H](O)[C@@H](N5CCOC(C)(C)C5)C[C@]4(C)[C@H]3C(=O)C[C@]12C
Reply: 1300
